Source listed as ChEMBL document CHEMBL4431362.

- Tested Target: Botulinum neurotoxin type E (Clostridium botulinum)
- Method Notes: Inhibition of Clostridium botulinum BoNT/E light chain using GFP-tagged VAMP2/SNAP-25 (Ala128 to Gly206 residues) as substrate after 15 mins by GFP based micro plate reader method
Activity calls are given as the source filed them. The rule behind the calls is not given here.

{"Compound": "CC(=O)N/C(=C\\c1c[nH]c2ccccc12)C(=O)N[C@@H](Cc1c[nH]c2ccccc12)C(=O)O (stereo in doubt)", "inhibition": "inactive"}
{"Compound": "COc1ccc(CNC(=O)C(=O)N[C@@H](C)[C@H](c2cccs2)N2CCN(Cc3ccccc3)CC2)cc1", "inhibition": "inactive"}
{"Compound": "Cc1cc(C)cc(N(CC(=O)Nc2ccc(C(F)(F)F)cc2)S(=O)(=O)c2c(C)nc(O)nc2O)c1", "inhibition": "inactive"}

---

Below, each entry is listed alongside its reported inhibition.
- Tested Target: UniProt Q00496
- Sequence (Q00496 2-422 limits assumed): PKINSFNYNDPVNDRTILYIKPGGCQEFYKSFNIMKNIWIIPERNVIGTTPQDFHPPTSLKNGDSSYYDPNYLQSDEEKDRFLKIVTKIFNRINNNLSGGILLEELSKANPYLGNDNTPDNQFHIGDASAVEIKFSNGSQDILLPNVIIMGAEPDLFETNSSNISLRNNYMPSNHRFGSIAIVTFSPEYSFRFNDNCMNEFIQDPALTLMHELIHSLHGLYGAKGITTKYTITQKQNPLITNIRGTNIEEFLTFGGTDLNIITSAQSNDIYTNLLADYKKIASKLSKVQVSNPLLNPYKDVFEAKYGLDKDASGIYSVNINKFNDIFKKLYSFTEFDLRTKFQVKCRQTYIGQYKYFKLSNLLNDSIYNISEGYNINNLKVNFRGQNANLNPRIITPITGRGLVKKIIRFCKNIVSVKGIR
- Method Notes: Inhibition of Clostridium botulinum BoNT/E light chain-mediated SNAP-25 cleavage assessed as reduction in residual activity using SNAP-Etide as substrate at 100 uM after 15 mins by micro plate reader method

{"Molecule": "Cc1cccc(NC(=O)[C@@H](CC(C)C)NS(=O)(=O)c2ccc3oc(=O)n(C)c3c2)c1C", "Output Unit": "%", "inhibition": 71}
{"Molecule": "COc1ccc(N(CC(=O)Nc2ccc(F)c(Cl)c2)S(=O)(=O)c2c(C)[nH]c(=O)[nH]c2=O)cc1", "Output Unit": "%", "inhibition": 41}
{"Molecule": "CC(=O)N/C(=C\\c1c[nH]c2ccccc12)C(=O)N[C@@H](Cc1c[nH]c2ccccc12)C(=O)O (stereo in doubt)", "Output Unit": "%", "inhibition": 52}
{"Molecule": "COc1ccc(CNC(=O)C(=O)N[C@@H](C)[C@H](c2cccs2)N2CCN(Cc3ccccc3)CC2)cc1", "Output Unit": "%", "inhibition": 47}
{"Molecule": "CCOc1ccc(NC(=O)CSc2nccn2-c2cccc(C(=O)Nc3ccccc3)c2)cc1", "Output Unit": "%", "inhibition": 40}
{"Molecule": "CC(=O)c1cccc(NC(=O)CSc2nnc(SCC(=O)Nc3cccc(C(C)=O)c3)s2)c1", "Output Unit": "%", "inhibition": 31}
{"Molecule": "Cc1cc(C)cc(N(CC(=O)Nc2ccc(C(F)(F)F)cc2)S(=O)(=O)c2c(C)nc(O)nc2O)c1", "Output Unit": "%", "inhibition": 42}
{"Molecule": "CCOc1ccc(OCC)c(NC(=O)CSc2cc(N3CCC(C(=O)NC4CC4)CC3)ncn2)c1", "Output Unit": "%", "inhibition": 25}
{"Molecule": "Cc1ccc(NC(=O)N2CC(=O)N(CC(=O)NC[C@H]3CCCO3)c3ccccc32)cc1", "Output Unit": "%", "inhibition": 33}

---

- Tested Target: Botulinum neurotoxin type A (Clostridium botulinum, UniProt P0DPI0)
- Sequence (P0DPI0 2-448 limits assumed): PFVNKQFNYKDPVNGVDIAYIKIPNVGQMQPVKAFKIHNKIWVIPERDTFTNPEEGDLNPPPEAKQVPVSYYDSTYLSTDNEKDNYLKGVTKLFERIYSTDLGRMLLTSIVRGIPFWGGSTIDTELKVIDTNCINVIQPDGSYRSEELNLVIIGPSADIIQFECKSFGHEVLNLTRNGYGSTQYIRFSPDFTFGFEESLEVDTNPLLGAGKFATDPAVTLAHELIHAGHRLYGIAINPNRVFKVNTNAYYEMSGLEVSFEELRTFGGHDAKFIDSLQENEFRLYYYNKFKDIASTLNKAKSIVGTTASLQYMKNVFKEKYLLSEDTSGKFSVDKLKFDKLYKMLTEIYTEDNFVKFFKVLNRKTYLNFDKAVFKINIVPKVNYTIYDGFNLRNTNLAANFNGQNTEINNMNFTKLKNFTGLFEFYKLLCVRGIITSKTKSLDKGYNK
- Method Notes: Inhibition of Clostridium botulinum BoNT/A light chain
Peptide text beside a SMILES is read from it.
Observed Property: IC50 (nM)

{"Compound": "N=C(N)NCCC[C@H](NC(=O)[C@@H](N)CCCNC(=N)N)C(=O)NCC(=O)N[C@@H](Cc1ccccc1)C(=O)O (H-RRGF-OH)", "Observed Property": "IC50", "Quantitative Readout": 900}

---

- Tested Target: Botulinum neurotoxin type A (Clostridium botulinum, UniProt P0DPI0)
- Method Notes: Inhibition of protease activity of Clostridium botulinum BoNT/A using N(K)-acetyl)-SNKTRIDEANQRATKML-carboxamide as substrate
pKi: −log10 of the molar value.
Observed Property: pKi

{"Substance": "H-CRATKML-OH", "Quantitative Readout": 5.70}
